// pIC50 collected for Protein kinase C alpha type (Homo sapiens, UniProt P17252)
pIC50: −log10 of the molar value.

[[record]]
smiles_str = "Cc1nnc(-c2cn3ncnc(Nc4cnc5[nH]ccc5c4)c3c2C(C)C)o1"
result = "< 4.30"


stdin: Notebook: pull reported pIC50 for Protein kinase C alpha type (Homo sapiens, UniProt P17252), entry "Cc1cc2cc(Nc3ncnn4cc(-c5nnc(C)o5)c(C(C)C)c34)cnc2[nH]1"
stdout: < 4.30

====

ASSAY PROCEDURE: Aqueous solubility at pH 6.5
Assay type: physicochemical
SETUP CONDITIONS: buffer
METRIC NAME: solubility (µg/mL)
Give the quantity in µg/mL, number only.

stdin: Bench note: what solubility did "Cc1cc2cc(Nc3ncnn4cc(-c5nnc(C)o5)c(C(C)C)c34)cnc2[nH]1" show?
stdout: 2.8

====

STUDY TARGET: Fibroblast growth factor receptor 1 (Homo sapiens)
Sequence (P11362 whole entry): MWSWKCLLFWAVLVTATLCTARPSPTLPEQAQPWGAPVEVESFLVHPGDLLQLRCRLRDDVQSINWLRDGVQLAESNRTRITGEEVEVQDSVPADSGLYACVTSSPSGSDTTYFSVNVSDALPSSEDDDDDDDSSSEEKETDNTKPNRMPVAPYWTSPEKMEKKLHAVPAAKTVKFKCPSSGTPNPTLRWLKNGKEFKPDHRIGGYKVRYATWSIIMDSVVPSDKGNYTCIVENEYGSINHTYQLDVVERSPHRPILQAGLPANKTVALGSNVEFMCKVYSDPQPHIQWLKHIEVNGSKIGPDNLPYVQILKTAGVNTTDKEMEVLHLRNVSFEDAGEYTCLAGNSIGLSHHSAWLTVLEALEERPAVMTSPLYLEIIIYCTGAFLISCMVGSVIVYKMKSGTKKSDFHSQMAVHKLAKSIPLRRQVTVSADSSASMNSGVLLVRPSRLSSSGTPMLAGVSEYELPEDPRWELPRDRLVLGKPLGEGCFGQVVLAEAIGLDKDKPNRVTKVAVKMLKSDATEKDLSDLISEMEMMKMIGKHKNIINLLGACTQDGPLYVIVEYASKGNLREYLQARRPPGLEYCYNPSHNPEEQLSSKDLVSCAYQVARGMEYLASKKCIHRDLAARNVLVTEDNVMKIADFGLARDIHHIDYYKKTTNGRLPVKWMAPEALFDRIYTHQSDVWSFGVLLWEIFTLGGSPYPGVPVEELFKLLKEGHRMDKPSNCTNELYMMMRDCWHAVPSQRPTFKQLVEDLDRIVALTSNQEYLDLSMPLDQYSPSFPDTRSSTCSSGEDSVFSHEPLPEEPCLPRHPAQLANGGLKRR
METRIC NAME: IC50 (nM)
Give the quantity in nM, number only.

stdin: Notebook: pull reported IC50 for Fibroblast growth factor receptor 1 (Homo sapiens), entry "Cc1nnc(-c2cn3ncnc(Nc4cnc5[nH]ccc5c4)c3c2C(C)C)o1"
stdout: 61

====

Below, each entry is listed alongside its reported AUC at 4 h.
ASSAY PROCEDURE: AUC in mouse at 50 mg/kg, po after 4 hrs
Format: ADME, organism-based
Design: time < 4 hr, dose 50 mg/kg, route oral
SETUP CONDITIONS: plasma
Give the quantity in µM·h, number only.

These recorded examples may help you get a feel for the data.
[[record]]
smiles_str = "Cc1cc2c(F)c(Oc3ncnn4cc(OC[C@@H](C)O)c(C)c34)cnc2[nH]1"
readout_units = "µM·h"
result = 29.6

[[record]]
smiles_str = "Cc1cc2c(F)c(Oc3ncnn4cc(OC[C@@H](C)O)c(C)c34)ccc2[nH]1"
readout_units = "µM·h"
result = 136


Attention now shifts to the item below.
stdin: Bench note: what AUC at 4 h did "Cc1c(OC[C@@H](C)O)cn2ncnc(Oc3cnc4[nH]ccc4c3F)c12" show?
stdout: 11.1

====

ASSAY PROCEDURE: Half life in BALB/c mouse at 30 mg/kg, po
Type: ADME, organism-based
Parameters: dose 30 mg/kg, route oral
SETUP CONDITIONS: in vivo
METRIC NAME: half-life (h)
Give the quantity in h, number only.

These recorded examples may help you get a feel for the data.
[[record]]
smiles_str = "CNc1nnc(-c2cn3ncnc(Nc4cnc5[nH]c(C)cc5c4)c3c2C(C)C)o1"
result = 2.8

[[record]]
smiles_str = "Cc1cc2cc(Nc3ncnn4cc(-c5nnc(C)o5)c(C(C)C)c34)cnc2[nH]1"
result = 2.5


Attention now shifts to the item below.
stdin: Bench note: what half-life did "Cc1nnc(-c2cn3ncnc(Nc4cnc5[nH]ccc5c4)c3c2C(C)C)o1" show?
stdout: 4.5
